- experiment_notes: NCI Yeast Anticancer Drug Screen. Data for the sgs1 mgt1 strain (AID 161);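 further: 0% = growth of cultures given vehicle only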
- assay_conditions: S. cerevisiae sgs1 mgt1 strain, at 50.0 µM, active compounds read high
The panel holds about 79,000 compounds, 15% with a hit somewhere; the sample as a whole holds those more often.
Listed below: growth inhibition values for each entry.
Give your result in % as a bare value.

CC(=O)OCC(=O)[C@H]1CC[C@H]2[C@@H]3CC=C4C[C@@H](O)CC[C@]4(C)[C@H]3CC[C@]12C ... 48.5
CCN(CC)CCNc1nc(NCCN(CC)CC)c2nc(-c3ccccc3)c(-c3ccccc3)nc2n1 ... 98.8
CC(=O)Nc1ccc(S(=O)(=O)N(CCO)CCO)cc1 ... 40.5
c1cc2c3c(cccc3c1)-c1cnccc1-2 ... 92.9

**Q:** Give its growth inhibition value. Item: Fc1ccccc1-c1ncc(-c2ccccc2)o1
**A:** 51.8

**Q:** Need growth inhibition, item Cc1c(-c2ccccc2)ccnc1/C=N/NC(N)=S
**A:** 65.7

**Q:** Item under review: CCCCCCCCCCCCCC1=NCC(c2ccc3ccccc3c2)O1 (configuration not stated) . Reported growth inhibition?
**A:** -12.6

**Q:** Quick one: growth inhibition of c1ccc(C2=NC(c3ccccc3)=NS(S3=NC(c4ccccc4)=NC(c4ccccc4)=N3)=N2)cc1 (configuration not stated) ?
**A:** 82.7

**Q:** Endpoint output: growth inhibition of CCC(=O)OCOc1ccc(/C=C2\CCC(CN(C)C)C2=O)cc1 (configuration not stated) . Value?
**A:** 92.5

**Q:** // query growth inhibition value for entry c1cc2c3c(c1)c1cc4c(cc1c[n+]3CC2)OCO4
**A:** 92.1

**Q:** For the compound CCCCCCCCCCS(=O)CC(CO)NC(=O)/C=C/c1c(C)[nH]c(=O)[nH]c1=O (configuration not stated) , what growth inhibition is on record?
**A:** 88.7

**Q:** Return reported growth inhibition; argument: Cc1ccc(NCCN(C)C)c2c(=O)c3cc(O)ccc3sc12
**A:** 91.2

**Q:** Any idea what its growth inhibition is? The compound is CS(=O)(=O)OCCN(CCOS(C)(=O)=O)c1ccc(C=Nc2ccc(-c3csc(Cc4ccccc4)n3)cc2)c(Cl)c1
**A:** 71

**Q:** Name the recorded growth inhibition for O=C(O)c1ccc(Nc2cnc3ccc(C(F)(F)F)cc3n2)cc1 .
**A:** 18.2

**Q:** Item under review: CCOc1ccc(NC(=O)C(=O)NO)cc1 . Reported growth inhibition?
**A:** 74

###

- experiment_notes: NCI Yeast Anticancer Drug Screen. Data for the mlh1 rad18 strain (AID 175)
- assay_conditions: S. cerevisiae mlh1 rad18 strain growth inhibition; at 50.0 µM (retest, dose inferred, filed as 5.0)
- Experimental: Growth inhibition of yeast strains with defined genetic alterations is measured as a screen for potential anti-cancer activity. Selected strains with alterations in DNA damage repair or cell cycle control were exposed to compounds and growth inhibition was measured relative to vehicle treated controls. The strain used in this assay is mlh1 rad18
The panel holds about 79,000 compounds, 15% with a hit somewhere; the sample as a whole holds those more often. Active and inactive are the calls of the source. No stated cut-off is given here; in the data, active means growth inhibition above about 70%; inactive means the rest.
Tick one outcome: TRUE = active, FALSE = inactive

Worked examples, 2 compounds total:
c1ccc([P+](CCCCCCCC[P+](c2ccccc2)(c2ccccc2)c2ccccc2)(c2ccccc2)c2ccccc2)cc1 ... TRUE
CCCCCC[C@H](C/C=C\CCCCCCCC(=O)OC)OC(C)=O ... FALSE

# evaluate next
**Q:** Record lookup: outcome of this test for COc1cc(OC)c(OC)cc1/C=C\c1ccnc2ccccc12 ?
**A:** TRUE

###

- experiment_notes: NCI Yeast Anticancer Drug Screen. Data for the sgs1 mgt1 strain (AID 161);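 further: 0% = growth of cultures given vehicle only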
- assay_conditions: S. cerevisiae sgs1 mgt1 strain, at 50.0 µM (retest, dose inferred, filed as 5.0)
About 79,000 compounds went through this panel and 15% of them were active in at least one assay; those are over-represented in the sample as a whole. Calls of active or inactive are those of the source. No stated cut-off is given here; in the data, active means growth inhibition above about 70%; inactive means the rest.
Answer with one of the outcomes given here: Yes = active, No = inactive

Solved entries:
C=C1CC2(CC(c3ccccc3C)OC(c3ccccc3C)C2)OC1=O (stereo not drawn) ... Yes
O=C1CSC(=S)N1c1ccc(Cl)c(C(F)(F)F)c1 ... Yes
O=C(O)c1ccc2c(c1)Cc1cc([N+](=O)[O-])ccc1-2 ... Yes

**Q:** Would you mind telling me which call this test gave COc1ccc(Oc2ccccc2N)cc1 ?
**A:** Yes

**Q:** Which result was noted for this molecule in the test: c1ccc(-c2[nH]c3ccccc3c2-c2ccccn2)cc1
**A:** No

**Q:** So what was the verdict on COc1cccc2c1C(=O)c1c(O)c3c(c(O)c1C2=O)C[C@@](O)(C(C)=O)C[C@@H]3OC1CC(N)C(O)C(C)O1 (stereo partly drawn) in this test?
**A:** Yes

**Q:** What classification did Fc1ccc(/C=C2\COCC3=C2NC(=S)NC3c2ccc(F)cc2)cc1 (stereo not drawn) end up with in this test?
**A:** Yes

**Q:** Tell me the recorded outcome of this test for O=C1C=CC(=O)N1c1ccc(N=Nc2ccccc2)cc1 .
**A:** Yes

**Q:** Look up the recorded call for O=[N+]([O-])c1ccc(N/N=C(/C=N/Nc2ccc([N+](=O)[O-])cc2)C(O)C(O)C(O)CO)cc1 (stereo not drawn) in this test.
**A:** Yes

**Q:** Which outcome did this test record for the molecule CC(C)N1CSC(=S)N(Cc2ccccc2)C1 ?
**A:** Yes

###

- experiment_notes: NCI Yeast Anticancer Drug Screen. Data for the mec2-1 strain (AID 157)
- assay_conditions: S. cerevisiae mec2-1 strain, at 50.0 µM (retest, dose inferred, filed as 5.0)
About 79,000 compounds went through this panel and 15% of them were active in at least one assay; those are over-represented in the sample as a whole. Activity calls are given as the source filed them. Rule as the data show it: active = growth inhibition above about 70%; inactive = the rest.
# output must be one of active, inactive

Example results:
COc1ccc(CC(=O)c2ccc(O)cc2O)cc1 ... active
CCCCCCCCCCCCCCCCCCOCC(O)CO (stereo not drawn) ... inactive
CCC1CCCC(=O)C1 (stereo not drawn) ... inactive
CCN(CCO)CCNc1ccc(C)c2sc3ccccc3c(=O)c12 ... active
CC(=O)OC(c1ccccc1)c1ccc(Cl)cc1 (stereo not drawn) ... inactive
Cc1cc(NS(=O)(=O)c2ccc(N=Nc3cc(N=Nc4ccc(S(=O)(=O)Nc5cc(C)nc(C)n5)cc4)c4c(NC(=O)C(Cl)Cl)cccc4c3OC(=O)C(Cl)Cl)cc2)nc(C)n1 (tested in a mixture with another compound) ... active
O=S(=O)(O)c1ccc(NN(c2c(O)ccc3ccccc23)S(=O)(=O)O)cc1 ... inactive
C=CCCC(=O)O ... inactive
O=C(NN1CCOC1=O)OCCCl ... inactive
Clc1nc(Cl)c(Cl)c(Cl)n1 ... active

**Q:** Which result was noted for this molecule in the test: Clc1ccc(CNNCc2ccc(Cl)cc2)cc1
**A:** active

**Q:** So what was the verdict on O=C(CC1=Nc2nnc(CCCCCCCc3nnc4n3C(=O)C(CC(=O)c3ccc5ccccc5c3)=N4)n2C1=O)c1ccc2ccccc2c1 in this test?
**A:** active

**Q:** Outcome? CCN(C(=O)C(Cl)Cl)C(Cc1ccccc1)c1ccccc1 (stereo not drawn)
**A:** inactive

**Q:** Query: recorded result category for O=C(O)c1ccc(C(c2ccccc2)c2ccccc2)cc1 in this test
**A:** active

**Q:** Please state the recorded outcome for this molecule: O=NC1C(Br)C2CC1C1C(Cl)C(Cl)CC21 (stereo not drawn)
**A:** inactive

**Q:** Could you kindly confirm the outcome this assay logged for Oc1ccc(/C=N/NC(=S)NN2CCOCC2)nc1 ?
**A:** active

###

The entries below come with measured growth inhibition values attached.
- experiment_notes: NCI Yeast Anticancer Drug Screen. Data for the sgs1 mgt1 strain (AID 161);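 further: 0% = growth of cultures given vehicle only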
- assay_conditions: S. cerevisiae sgs1 mgt1 strain, at 50.0 µM (retest, dose inferred, filed as 5.0), active compounds read high
This is part of a sample that, as a whole, favours compounds with a hit. Of some 79,000 tested, about 15% had one in any assay.
State the answer as a number, implicitly in %.

Reference set (3 entries):
CCCCCCCCCCCC(=O)CN1CCOCC1 ... 99
Nc1ccc([N+](=O)[O-])c(S(=O)(=O)O)c1 ... -54
CN(C)CCC(=O)c1cccc([N+](=O)[O-])c1 ... 89

Moving on to another compound below.
**Q:** Fill in: growth inhibition of Nc1cc(F)c2c(c1)Cc1ccccc1-2 is ___
**A:** 84

###

- experiment_notes: NCI Yeast Anticancer Drug Screen. Data for the rad50 strain (AID 155);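 further: 0% = growth of vehicle-only cultures of the same strain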
- assay_conditions: S. cerevisiae rad50 strain growth inhibition; at 50.0 µM (retest, dose inferred, filed as 5.0)
- Method: Growth inhibition of yeast strains with defined genetic alterations is measured as a screen for potential anti-cancer activity. Selected strains with alterations in DNA damage repair or cell cycle control were exposed to compounds and growth inhibition was measured relative to vehicle treated controls. The strain used in this assay is rad50
The panel holds about 79,000 compounds, 15% with a hit somewhere; the sample as a whole holds those more often. Activity calls are given as the source filed them. No stated cut-off is given here; in the data, active means growth inhibition above about 70%; inactive means the rest.
Hello, when you answer, please use one of the following outcomes: Y for active, N for inactive

# count of solved cases: 3
CC(C)N1CSC(=S)N(Cc2ccccc2)C1 ... Y
CCCn1cnc2c(SCc3ccc(Cl)cc3)nc(N)nc21 ... N
CC[C@@]1(OC(=O)C(N)CCCCN)C(=O)OCc2c1cc1n(c2=O)Cc2cc3ccccc3nc2-1 (some centres undefined) ... Y

Here's the next entry for you.
**Q:** Record request — test call for c1ccc(Cc2cc3ccccc3c3ccccc23)cc1
**A:** N
